Hi there, I'd appreciate the recorded kon for every entry that follows.
# measurement_target: T1, native IHFNTHI (integration host factor of nontypeable Haemophilus influenzae) (nontypeable Haemophilus influenzae …, UniProt P43723 1-96; P43724 1-94)
# T1 construct: also called NTHI IHF
# T1 sequence 1: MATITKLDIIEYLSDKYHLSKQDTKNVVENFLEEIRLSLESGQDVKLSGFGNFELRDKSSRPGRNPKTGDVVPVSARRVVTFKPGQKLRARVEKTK
# T1 sequence 2: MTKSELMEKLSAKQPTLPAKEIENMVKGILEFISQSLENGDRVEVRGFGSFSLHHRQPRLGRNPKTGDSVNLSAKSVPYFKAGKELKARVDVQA
# protocol_details: SPR Biacore 3000, HuMab immobilized, IHFNTHI as analyte
Number only, in M⁻¹ s⁻¹; omit the unit.

Ask: What value of measured kon is listed for humanized anti-tip monoclonal antibody, heavy chain SEQ ID NO: 2 and light chain SEQ ID NO: 8 (antibody, V domains shown, also called H10211 (1F8.F1 Humanized HC2) + L10211 (1F8.F1 Humanized LC2)) VH: EVQLVESGGGLVQPGGSLRLSCAASGFTFRTYAMSWVRQAPGKGLEWVATIGSDRRHTYYPDSVKGRFTISRDNSKNTLYLQMNSLRAEDTAVYYCVGPYDGYYGEFDYWGQGTLVTVSS VL: DVVMTQSPLSLPVTLGQPASISCRSSQSLLDSDGKTFLNWLQQRPGQSPRRLIYLVSKRDSGVPDRFSGSGSGTDFTLKISRVEAEDVGVYYCWQGTHFPYTFGQGTKLEIKR ?
Reply: 70000

Ask: And what about the binder humanized anti-tip monoclonal antibody, heavy chain SEQ ID NO: 3 and light chain SEQ ID NO: 8 (antibody, V domains shown, also called H10212 (1F8.F1 Humanized HC3) + L10211 (1F8.F1 Humanized LC2)) VH: EVKLVQSGAEVKKPGASVKVSCKASGFTFRTYAMSWVRQAPGQRLEWVATIGSDRRHTYYPDKFQGRVTITRDNAKNTLYMELSSLRSEDTAVYYCVGPYDGYYGEFDYWGQGTLVTVSS VL: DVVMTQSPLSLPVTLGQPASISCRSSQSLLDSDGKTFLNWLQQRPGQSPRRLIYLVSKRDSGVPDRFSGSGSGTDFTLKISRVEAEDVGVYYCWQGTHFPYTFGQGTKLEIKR ?
Reply: 7500

Ask: For humanized anti-tip monoclonal antibody, heavy chain SEQ ID NO: 3 and light chain SEQ ID NO: 7 (antibody, V domains shown, also called H10212 (1F8.F1 Humanized HC3) + L10210 (1F8.F1 Humanized LC1)) VH: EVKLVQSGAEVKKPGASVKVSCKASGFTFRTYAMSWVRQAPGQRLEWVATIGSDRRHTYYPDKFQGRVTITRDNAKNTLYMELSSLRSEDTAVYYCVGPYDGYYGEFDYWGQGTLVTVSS VL: DVVMTQSPLSLPVTLGQPASISCRSSQSLLDSDGKTFLNWLQQRPGQSPRRLIYLVSKLDSGVPDRFSGSGSGTDFTLKISRVEAEDVGVYYCWQGTHFPYTFGQGTKLEIKR then?
Reply: 66000
